- Tested on: Setaria cervi
- procedure text: Antifilarial activity against Setaria cervi assessed as change in GSH level at 250 uM after 6 hr by RP-HPLC analysis
- Type: functional
Listing of entries alongside the reported Activity.
Please state the value followed by its unit.

Past entries and their recorded results:
>  <compound>
CCOC(=O)CC(NCCCCCCCNC(CC(=O)OCC)[C@@H]1O[C@H]2OC(C)(C)O[C@H]2[C@@H]1OC)[C@H]1O[C@@H]2OC(C)(C)O[C@@H]2[C@H]1OC (some centres undefined)

>  <recorded measurement>
39.04%

$$$$
>  <compound>
CO[C@H]1[C@@H](CNCCCCCCCNC[C@@H]2O[C@H]3OC(C)(C)OC3[C@@H]2OC)OC2OC(C)(C)O[C@@H]21 (single isomer, unassigned)

>  <recorded measurement>
52.54%

$$$$
>  <compound>
CCCc1cc(=O)oc2cc(OCC(=O)OCC)ccc12

>  <recorded measurement>
5.75%

$$$$
>  <compound>
Cc1cc(=O)oc2cc(OCC(=O)NCCCCCCCCCCCCN)ccc12

>  <recorded measurement>
3.22%

$$$$
>  <compound>
CCOC(=O)CC(NCCCNC(CC(=O)OCC)[C@@H]1O[C@H]2OC(C)(C)O[C@H]2[C@@H]1OCc1ccccc1)C1O[C@@H]2OC(C)(C)OC2[C@H]1OCc1ccccc1 (single isomer, unassigned)

>  <recorded measurement>
59.12%

$$$$

Reported Activity for CO[C@@H]1[C@H]2OC(C)(C)O[C@H]2O[C@@H]1CNCCCCCCCCCCCCNC[C@@H]1O[C@H]2OC(C)(C)O[C@H]2[C@@H]1OC (stereo in doubt) was 39%

Reported Activity for CC(C)=CC(=O)C=C(C)C was 93.7%

Reported Activity for CCOC(=O)CC(NCCCCCCCCCCNC(CC(=O)OCC)[C@@H]1O[C@H]2OC(C)(C)O[C@H]2[C@@H]1OC)[C@H]1O[C@@H]2OC(C)(C)O[C@@H]2[C@H]1OC (some centres undefined) was 48%

Reported Activity for O=NN(CCCl)C(=O)NCCCl was 68.97%

Reported Activity for CCOC(=O)CC(NCCCCCCCCCCCCNC(CC(=O)OCC)[C@@H]1O[C@H]2OC(C)(C)O[C@H]2[C@@H]1OCc1ccccc1)[C@H]1O[C@@H]2OC(C)(C)O[C@@H]2[C@H]1OCc1ccccc1 (some centres undefined) was 67%

Reported Activity for Cc1cc2oc(=O)cc(C)c2cc1C was 42.07%

Reported Activity for CC1(C)O[C@@H]2O[C@@H](CNCCCCCCCCCCCCNC[C@H]3O[C@@H]4OC(C)(C)O[C@@H]4[C@H]3OCc3ccccc3)[C@@H](OCc3ccccc3)[C@@H]2O1 was 60%

Reported Activity for CCOC(=O)CC(NCCCNC(CC(=O)OCC)[C@@H]1O[C@H]2OC(C)(C)O[C@H]2[C@@H]1OC)[C@H]1O[C@@H]2OC(C)(C)O[C@@H]2[C@H]1OC (some centres undefined) was 14.55%

Reported Activity for CN(C)c1ccc2nc3ccc(N(C)C)cc3[s+]c2c1.[Cl-] [METHYLENE BLUE ANHYDROUS] was 34.68%

Sourced from ChEMBL document CHEMBL3045945
